Answer each item with its documented Ki.
# TARGET: Histamine H3 receptor (Homo sapiens, UniProt Q9Y5N1)
# Sequence (Q9Y5N1 whole entry): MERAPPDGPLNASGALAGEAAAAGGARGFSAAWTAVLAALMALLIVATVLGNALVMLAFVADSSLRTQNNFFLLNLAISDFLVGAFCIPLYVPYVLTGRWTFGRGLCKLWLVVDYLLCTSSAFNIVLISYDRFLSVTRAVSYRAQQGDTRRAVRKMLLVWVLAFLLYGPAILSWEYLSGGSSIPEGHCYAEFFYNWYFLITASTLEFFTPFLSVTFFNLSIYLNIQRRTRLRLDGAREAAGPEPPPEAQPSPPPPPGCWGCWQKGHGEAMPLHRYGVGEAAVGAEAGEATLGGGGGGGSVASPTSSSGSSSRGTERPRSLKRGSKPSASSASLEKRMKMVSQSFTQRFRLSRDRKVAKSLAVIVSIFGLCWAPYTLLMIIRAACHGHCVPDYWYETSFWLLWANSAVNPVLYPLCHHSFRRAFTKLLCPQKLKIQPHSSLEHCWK
# MEASUREMENT DESCRIPTION: Displacement of [125I]iodoproxyfan from human H3 receptor expressed in HEK293 cell membranes after 1 hr
Enter your answer as a number in nM; do not include the unit.

Input: Given the molecule c1ccc(C(OCCCc2c[nH]cn2)c2nc3ccccc3s2)cc1 (configuration not stated) , what is its reported Ki?
Output: 34

Input: Given the molecule c1ccc(C(OCCCc2c[nH]cn2)c2ccccc2)cc1 , what is its reported Ki?
Output: 17

* * *

# TARGET: Histamine H3 receptor (Homo sapiens)
# MEASUREMENT DESCRIPTION: Binding affinity to histamine H3 receptor (unknown origin)
ENDPOINT: pKi
// field semantics: pKi = negative decimal log of concentration (mol/L)

Input: Given the compound Cn1cnc(CCN)c1 , what is its reported pKi?
Output: 4.70

* * *

Answer each item with its documented Intrinsic activity.
# TARGET: UniProt Q9H3N8
# MEASUREMENT DESCRIPTION: Intrinsic activity at human histamine H4 receptor expressed in human SH-SY5Y cell membranes by [35S]GTPgammaS binding assay
# Format: functional
Note: the reply should be a number with no unit written.

Input: Given the compound c1ccc(C(OCCn2ccnc2)c2nc3ccccc3s2)cc1 (stereo not drawn) , what is its reported Intrinsic activity?
Output: 0

Input: Given the compound c1ccc(-c2ccc(C(OCCCc3c[nH]cn3)c3ccccc3)cc2)cc1 (stereo not drawn) , what is its reported Intrinsic activity?
Output: 0

Input: Given the compound c1ccc(C(OCc2c[nH]cn2)c2nc3ccccc3s2)cc1 (stereo not drawn) , what is its reported Intrinsic activity?
Output: 0

* * *

# TARGET: UniProtKB Q9Y5N1
# MEASUREMENT DESCRIPTION: Antagonist activity at human histamine H3 receptor
ENDPOINT: Ki (nM)
Enter your answer as a number in nM; do not include the unit.

Input: Given the molecule c1ccc(C(OCCCc2c[nH]cn2)c2ccccc2)cc1 , what is its reported Ki?
Output: 17

* * *

Answer each item with its documented Kb.
# TARGET: Histamine H4 receptor (Homo sapiens)
# Sequence (Q9H3N8 whole entry): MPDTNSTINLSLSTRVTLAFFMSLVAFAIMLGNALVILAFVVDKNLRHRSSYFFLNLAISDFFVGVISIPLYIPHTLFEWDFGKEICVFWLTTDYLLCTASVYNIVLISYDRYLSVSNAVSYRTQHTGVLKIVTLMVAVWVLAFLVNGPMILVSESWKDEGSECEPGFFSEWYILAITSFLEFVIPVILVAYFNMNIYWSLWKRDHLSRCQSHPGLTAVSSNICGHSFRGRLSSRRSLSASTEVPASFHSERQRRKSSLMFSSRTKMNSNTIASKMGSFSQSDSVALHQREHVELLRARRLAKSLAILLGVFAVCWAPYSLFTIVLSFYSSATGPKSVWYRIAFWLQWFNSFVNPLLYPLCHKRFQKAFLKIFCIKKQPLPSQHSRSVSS
# MEASUREMENT DESCRIPTION: Antagonist activity at human histamine H4 receptor expressed in human SH-SY5Y cell membranes assessed as inhibition of Imetit-induced [35S]GTPgammaS binding
# Format: functional

Input: Test system Histamine H4 receptor (Homo sapiens); read-out Kb; what value for c1ccc(C(OCCCc2c[nH]cn2)c2nc3ccccc3s2)cc1 (stereo not given) ?
Output: 1.1 nM

Input: Test system Histamine H4 receptor (Homo sapiens); read-out Kb; what value for c1ccc(C(OCCCc2c[nH]cn2)c2ccccc2)cc1 ?
Output: 19 nM

Input: Test system Histamine H4 receptor (Homo sapiens); read-out Kb; what value for Cc1[nH]cnc1CCCOC(c1ccccc1)c1nc2ccccc2s1 (stereo not given) ?
Output: 1.6 nM

Input: Test system Histamine H4 receptor (Homo sapiens); read-out Kb; what value for Cn1cncc1CCCOC(c1ccccc1)c1nc2ccccc2s1 (stereo not given) ?
Output: > 10000 nM

Input: Test system Histamine H4 receptor (Homo sapiens); read-out Kb; what value for c1ccc(-c2ccc(C(OCCCc3c[nH]cn3)c3ccccc3)cc2)cc1 (stereo not given) ?
Output: 17 nM

Input: Test system Histamine H4 receptor (Homo sapiens); read-out Kb; what value for c1ccc(C(OCCn2ccnc2)c2nc3ccccc3s2)cc1 (stereo not given) ?
Output: > 10000 nM

Input: Test system Histamine H4 receptor (Homo sapiens); read-out Kb; what value for c1ccc(C(OCCCc2c[nH]cn2)c2ccc3ccccc3c2)cc1 (stereo not given) ?
Output: 100 nM

Input: Test system Histamine H4 receptor (Homo sapiens); read-out Kb; what value for c1ccc(C(OCCCc2c[nH]cn2)c2cncnc2)cc1 (stereo not given) ?
Output: 29 nM

Input: Test system Histamine H4 receptor (Homo sapiens); read-out Kb; what value for Cc1nc(CCCOC(c2ccccc2)c2nc3ccccc3s2)c[nH]1 (stereo not given) ?
Output: > 10000 nM

Input: Test system Histamine H4 receptor (Homo sapiens); read-out Kb; what value for c1ccc(C(OCCCCn2ccnc2)c2nc3ccccc3s2)cc1 (stereo not given) ?
Output: > 10000 nM

Input: Test system Histamine H4 receptor (Homo sapiens); read-out Kb; what value for c1ccc(C(OCc2c[nH]cn2)c2nc3ccccc3s2)cc1 (stereo not given) ?
Output: 399 nM

Input: Test system Histamine H4 receptor (Homo sapiens); read-out Kb; what value for c1ccc(C(OCCc2c[nH]cn2)c2nc3ccccc3s2)cc1 (stereo not given) ?
Output: 3.7 nM

Input: Test system Histamine H4 receptor (Homo sapiens); read-out Kb; what value for Cn1cnc(CCCOC(c2ccccc2)c2nc3ccccc3s2)c1 (stereo not given) ?
Output: > 10000 nM

Input: Test system Histamine H4 receptor (Homo sapiens); read-out Kb; what value for c1ccc(C(OCCCc2c[nH]cn2)c2cccnc2)cc1 (stereo not given) ?
Output: 32 nM

Input: Test system Histamine H4 receptor (Homo sapiens); read-out Kb; what value for c1ccc(C(OCCCn2ccnc2)c2nc3ccccc3s2)cc1 (stereo not given) ?
Output: > 10000 nM
